Sourced from PubChem BioAssay

target-of-assay: Nuclear receptor coactivator 1 (Homo sapiens) (UniProt Q15788)
Sequence (Q15788 whole entry, looked up): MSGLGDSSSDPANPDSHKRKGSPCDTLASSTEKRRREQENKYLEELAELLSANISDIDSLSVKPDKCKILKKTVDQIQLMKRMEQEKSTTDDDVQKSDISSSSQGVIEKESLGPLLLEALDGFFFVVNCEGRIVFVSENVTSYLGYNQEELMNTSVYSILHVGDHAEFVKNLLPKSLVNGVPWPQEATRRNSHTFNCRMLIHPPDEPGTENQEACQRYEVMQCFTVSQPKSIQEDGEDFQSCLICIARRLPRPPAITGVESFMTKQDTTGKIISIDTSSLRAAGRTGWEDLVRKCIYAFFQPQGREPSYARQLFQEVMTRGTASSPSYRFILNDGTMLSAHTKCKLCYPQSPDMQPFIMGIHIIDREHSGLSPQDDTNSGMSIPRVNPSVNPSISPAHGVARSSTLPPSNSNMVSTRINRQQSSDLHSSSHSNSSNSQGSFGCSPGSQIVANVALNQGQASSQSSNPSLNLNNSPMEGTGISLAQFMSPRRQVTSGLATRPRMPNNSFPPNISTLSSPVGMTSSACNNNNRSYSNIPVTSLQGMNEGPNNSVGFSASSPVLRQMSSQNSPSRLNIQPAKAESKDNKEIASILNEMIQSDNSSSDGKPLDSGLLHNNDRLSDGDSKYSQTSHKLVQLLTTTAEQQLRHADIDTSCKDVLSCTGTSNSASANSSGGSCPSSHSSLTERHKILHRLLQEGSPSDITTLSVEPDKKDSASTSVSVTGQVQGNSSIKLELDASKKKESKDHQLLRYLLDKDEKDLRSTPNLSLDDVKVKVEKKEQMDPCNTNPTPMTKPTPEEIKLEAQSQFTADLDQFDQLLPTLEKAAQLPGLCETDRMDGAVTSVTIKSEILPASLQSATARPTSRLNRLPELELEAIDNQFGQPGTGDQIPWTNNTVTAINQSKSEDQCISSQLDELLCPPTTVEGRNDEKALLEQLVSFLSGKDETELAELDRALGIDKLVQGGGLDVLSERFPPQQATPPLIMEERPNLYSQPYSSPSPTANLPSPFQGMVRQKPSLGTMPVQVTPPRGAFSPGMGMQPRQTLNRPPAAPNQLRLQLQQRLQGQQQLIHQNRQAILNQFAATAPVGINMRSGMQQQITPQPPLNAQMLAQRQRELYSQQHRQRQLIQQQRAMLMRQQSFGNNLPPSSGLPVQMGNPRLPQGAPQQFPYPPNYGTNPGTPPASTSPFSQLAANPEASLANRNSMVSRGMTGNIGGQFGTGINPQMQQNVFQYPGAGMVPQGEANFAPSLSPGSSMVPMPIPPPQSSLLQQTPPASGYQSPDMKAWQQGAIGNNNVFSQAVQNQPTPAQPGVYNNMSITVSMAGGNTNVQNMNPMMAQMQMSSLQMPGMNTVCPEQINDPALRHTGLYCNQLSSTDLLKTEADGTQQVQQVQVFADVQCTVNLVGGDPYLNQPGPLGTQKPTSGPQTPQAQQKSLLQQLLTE
method-description: SRC1 coactivator transcriptional activity inhibitors, confirmation, cell-based, luminescence, quadruplicate (AID 588820);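 also: 0% = DMSO wells and 100% = gossypol 36 µM treated wells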
assay-conditions: HEK293 GAL4-SRC1 luciferase reporter, at 3.6 µM, stronger effect = higher value
inhibition for assorted compounds
A number alone suffices; assume %.

COC(=O)c1ccc2nc(Nc3nc4ccc(F)cc4s3)sc2c1
-36.1
CN(C(=O)COC(=O)c1ccc2[nH]c3c(c2c1)CCCC3)C1CCS(=O)(=O)C1 (stereo not given)
-0.53
COc1ccc2cc3c(N)nn(C(=O)c4ccc(F)cc4)c3nc2c1
56.7

Record COc1ccc(NC(=O)c2cc(-c3cc(Cl)ccc3OC)n[nH]2)cc1OC , field inhibition: 19.2

Record O=C1CC(c2ccc3c(c2)OCO3)Sc2nc3ccccc3n21 (stereo not given) , field inhibition: -110

Record CN(C)S(=O)(=O)c1ccc(-c2csc(N/N=C/c3ccco3)n2)cc1 , field inhibition: -22.3
